Field: cytotoxicity at 10 µM. Provide a value for each of the molecules that follow.
# Assay Method Text: Toxicity liver stage against HepG2, at 10uM
# Format: cell-based
# Parameters: test concentration 10 uM, cell line HepG2-A16-CD81EGFP
# Details: human, HepG2-A16-CD81EGFP cells; read-out: INHIBITION
Answers are plain numbers, in %.

Cc1cc(C(=O)NCc2ccc(-c3n[nH]cc3C(=O)N(C)C)cc2)on1
4.29
CCC(=O)NCC(=O)NCC(C)(C)c1cccc(Br)c1
-2.32
O=C(CSc1nnc(N2CCOCC2)s1)NC(=O)Nc1ccccc1
4.44
O=C(CSc1ccccc1Cl)NS(=O)(=O)c1ccc2c(c1)OCCO2
-10.7
CCN(C)C[C@@H]1CN(S(=O)(=O)c2cccc(Cl)c2)C[C@@H]1CO
-8.3

// lookup cytotoxicity at 10 µM for O=c1[nH]c(COc2ccc(Cl)cc2)nc2c1CCNC2 6.6

* * *

# Assay Method Text: Toxicity liver stage against HepG2, at 10uM
# Format: cell-based
# Design: test concentration 10 uM, cell line HepG2-A16-CD81EGFP
# Details: human, HepG2-A16-CD81EGFP cells; read-out: INHIBITION
Measurement Label: cytotoxicity at 10 µM (%)
Answers are plain numbers, in %.

COCCN1CCCCC12CC(=O)N(c1cccc(C#N)c1)C2 (centres undefined)
-102
CCS(=O)(=O)N1CCc2c(nc(C3CCCN3)nc2NC)C1 (centres undefined)
-10.2
CCOCC(=O)N1CCC2(CC1)COCCN2CCOC
8.37
CN(Cc1ccccc1)C1(C(=O)NC(C)(C)CO)Cc2ccccc2C1
0.603
O=C(CCSc1ccccc1)NCC1CCN(Cc2ccsc2)CC1
-6.93
CNc1nc(C(=O)N2CCN(c3ccc(Cl)c(Cl)c3)CC2)cs1
13.9

Can you give me cytotoxicity at 10 µM for all of these, one by one?
1. Cc1nc(C2CCCN2C(=O)Cc2cccc(F)c2)nc(O)c1C (centres undefined)
2. CCCn1cnnc1CNC1CSCCSC1
3. CC(C)Oc1ncc(C(=O)N2CCc3ccc(O)cc3C2)cc1Cl
4. CC(C)(C)Cc1noc2ncc(C(=O)N3CCSCC3)cc12
5. O=C([C@@H]1COC[C@H]2CN(CC3CC3)C[C@H]21)N1CCC(F)CC1

[-26.9, -7.31, 1.61, -0.779, 9.29]

Can you give me cytotoxicity at 10 µM for all of these, one by one?
1. Cc1ccc(-c2nc(CNC3CCc4ncnn4C3)co2)c(C)c1 (centres undefined)
2. O=C(NC1CC1)[C@@H]1CCO[C@@H]2CCN(Cc3ccsc3)C[C@H]21
3. Cc1nnc2n1CCN(C(C(N)=O)c1ccc(F)cc1)C2 (centres undefined)

[-9.5, 4.4, -13.5]

* * *

Field: cytotoxicity at 10 µM. Provide a value for each of the compounds that follow.
# Assay Method Text: Toxicity liver stage against HepG2, at 10uM
# Assay type: cell-based
# Parameters: test concentration 10 uM, cell line HepG2-A16-CD81EGFP
# Details: human, HepG2-A16-CD81EGFP cells; read-out: INHIBITION
One number for each entry, in %.

Look over these answered cases.
CNC(=O)C(CCSC)NC(=O)c1ccc2ccccc2n1 (stereo unspecified)
-1.35
O=C(c1cc2c(s1)CCC2)N1CCCC1c1noc(C2CC2)n1 (stereo unspecified)
-8.18
COc1cc(C2CC(=O)c3c(O)cc(O)cc3O2)ccc1O (stereo unspecified)
-0.537
COC(=O)CNC(=O)CCCn1cnc2ccccc2c1=O
-7.48
COCC1COCCC12CCN(C(=O)Cc1cccc(OC)c1)CC2 (stereo unspecified)
-2.56

For the next question, use this compound.
// lookup cytotoxicity at 10 µM for CSCC(=O)N[C@H]1CN(CC2CCOCC2)C[C@@H]1c1ccccc1 -3.97
